target_under_test: HLA-A*68:23
test_summary: IEDB peptide-MHC binding, purified MHC/competitive/fluorescence; filed as Kd, often an IC50 or EC50 that approximates it; bounds were set here for any values at or beyond the usual limits of such assays
experimental_conditions: source organism: Influenza A virus (A/Fort Monmouth/1/1947-mouse adapted(H1N1))
test_readout: pKd
pKd here: minus log base 10 of the concentration, concentration in moles per litre.

INPUT: What value of pKd has been recorded for this entry: GTFEFTSFF
OUTPUT: 8.24

====

target_under_test: HLA-B*40:01
test_summary: IEDB peptide-MHC binding, purified MHC/competitive/radioactivity; filed as Kd, often an IC50 or EC50 that approximates it; bounds were set here for any values at or beyond the usual limits of such assays
experimental_conditions: source organism: Dengue virus 2 Peru/IQT2913/1996
test_readout: pKd
pKd here: minus log base 10 of the concentration, concentration in moles per litre.

INPUT: What value of pKd has been recorded for this entry: WELVDKERNL
OUTPUT: 6.65

====

target_under_test: HLA-B*51:01
test_summary: IEDB peptide-MHC binding, purified MHC/direct/fluorescence; filed as Kd, often an IC50 or EC50 that approximates it; bounds were set here for any values at or beyond the usual limits of such assays
experimental_conditions: source organism: Entamoeba histolytica HM-1:IMSS
test_readout: Kd

INPUT: What value of Kd has been recorded for this entry: RQRHYFDSA
OUTPUT: ≥ 20 µM

====

target_under_test: HLA-A*02:06
test_summary: IEDB peptide-MHC binding, purified MHC/competitive/radioactivity; filed as Kd, often an IC50 or EC50 that approximates it; bounds were set here for any values at or beyond the usual limits of such assays
experimental_conditions: source organism: Vaccinia virus WR
Output: class label from Kd. Mapping: small value: < 0.8 µM; mid value: ≥ 0.8 µM and < 4 µM; large value: ≥ 4 µM

Examples with answers:
{"columns": ["residue_codes", "cat"],
 "data": [
  ["AIRAGYSIV", "large value"],
  ["ILPDKIDGL", "small value"],
  ["LTSVDIETAI", "mid value"]
]}

INPUT: Each sequence maps to one class by Kd. Which class for YISRDELWA ?
OUTPUT: mid value

INPUT: Each sequence maps to one class by Kd. Which class for AVITETIPI ?
OUTPUT: small value

INPUT: Each sequence maps to one class by Kd. Which class for ETKRNIARHL ?
OUTPUT: large value

INPUT: Each sequence maps to one class by Kd. Which class for YIEDELRRAA ?
OUTPUT: small value

====

target_under_test: HLA-A*68:02
test_summary: IEDB peptide-MHC binding, purified MHC/competitive/fluorescence; filed as Kd, often an IC50 or EC50 that approximates it; bounds were set here for any values at or beyond the usual limits of such assays
experimental_conditions: source organism: Brucella suis 1330
test_readout: Kd

INPUT: Kindly state the measured Kd obtained for TEWPQLKVA with HLA-A*68:02.
OUTPUT: ≥ 20 µM

====

target_under_test: HLA-A*23:01
test_summary: IEDB peptide-MHC binding, purified MHC/competitive/fluorescence; filed as Kd, often an IC50 or EC50 that approximates it; bounds were set here for any values at or beyond the usual limits of such assays
experimental_conditions: source organism: Influenza A virus (A/red knot/Delaware/2561/1987(H10N5))
test_readout: Kd

INPUT: Kindly state the measured Kd obtained for VMTDGPANK with HLA-A*23:01.
OUTPUT: ≥ 20 µM

====

target_under_test: HLA-B*08:01
test_summary: IEDB peptide-MHC binding, purified MHC/direct/fluorescence; filed as Kd, often an IC50 or EC50 that approximates it; bounds were set here for any values at or beyond the usual limits of such assays
experimental_conditions: source organism: Influenza A virus (A/Turkey/MO/24093/99(H1N2))
test_readout: Kd

INPUT: What value of Kd has been recorded for this entry: GMQIRGFVY
OUTPUT: ≥ 20 µM

====

target_under_test: HLA-B*57:01
test_summary: IEDB peptide-MHC binding, purified MHC/direct/fluorescence; filed as Kd, often an IC50 or EC50 that approximates it; bounds were set here for any values at or beyond the usual limits of such assays
experimental_conditions: source organism: Encephalitozoon cuniculi GB-M1
test_readout: Kd

{"columns": ["residue_codes", "Kd"],
 "data": [
  ["SPLPITLKY", "≥ 20 µM"]
]}

With those in mind, consider the next sequence.
INPUT: What value of Kd has been recorded for this entry: HPYVFCALL
OUTPUT: ≥ 20 µM

====

target_under_test: HLA-B*15:42
test_summary: IEDB peptide-MHC binding, purified MHC/competitive/fluorescence; filed as Kd, often an IC50 or EC50 that approximates it; bounds were set here for any values at or beyond the usual limits of such assays
experimental_conditions: source organism: Influenza A virus H3N2
pKd: −log10 of the molar value.
test_readout: pKd

INPUT: What value of pKd has been recorded for this entry: FSFGGFTFK
OUTPUT: ≤ 5.30

====

target_under_test: HLA-A*02:01
test_summary: IEDB peptide-MHC binding, purified MHC/competitive/fluorescence; bounds were set here for any values at or beyond the usual limits of such assays
experimental_conditions: source organism: Vaccinia virus Copenhagen
Entries and their IC50 values follow.

These solved cases illustrate the format of a correct answer.
{"columns": ["residue_codes", "target_under_test", "observed_result"],
 "data": [
  ["AKAIITPIV", "HLA-A*02:01", "≥ 147 µM"],
  ["AIITPIVFY", "HLA-A*02:01", "≥ 122 µM"]
]}

With those in mind, consider the next sequence.
INPUT: What value of IC50 has been recorded for this entry: KLYKNKSKQ
OUTPUT: ≥ 81.8 µM

====

target_under_test: HLA-A*33:01
test_summary: IEDB peptide-MHC binding, purified MHC/competitive/radioactivity; filed as Kd, often an IC50 or EC50 that approximates it; bounds were set here for any values at or beyond the usual limits of such assays
experimental_conditions: source organism: Mammarenavirus brazilense
test_readout: pKd
pKd here: minus log base 10 of the concentration, concentration in moles per litre.

INPUT: Kindly state the measured pKd obtained for SCMVNHSTYY with HLA-A*33:01.
OUTPUT: 5.05

====

target_under_test: HLA-A*29:02
test_summary: IEDB peptide-MHC binding, purified MHC/competitive/fluorescence; filed as Kd, often an IC50 or EC50 that approximates it; bounds were set here for any values at or beyond the usual limits of such assays
experimental_conditions: source organism: Entamoeba histolytica HM-1:IMSS
test_readout: Kd

These solved cases illustrate the format of a correct answer.
{"columns": ["residue_codes", "Kd"],
 "data": [
  ["RTFDRFFEE", "≥ 20 µM"],
  ["EVIRATYPS", "≥ 20 µM"]
]}

With those in mind, consider the next sequence.
INPUT: What value of Kd has been recorded for this entry: MTIHFFLNE
OUTPUT: 0.192 µM

====

target_under_test: HLA-B*15:42
test_summary: IEDB peptide-MHC binding, purified MHC/competitive/fluorescence; filed as Kd, often an IC50 or EC50 that approximates it; bounds were set here for any values at or beyond the usual limits of such assays
experimental_conditions: source organism: Bacillus anthracis str. A0488
pKd: −log10 of the molar value.
test_readout: pKd

INPUT: What value of pKd has been recorded for this entry: TTYVYTLPV
OUTPUT: ≤ 5.30

====

target_under_test: HLA-B*35:01
test_summary: IEDB peptide-MHC binding, purified MHC/competitive/radioactivity; filed as Kd, often an IC50 or EC50 that approximates it; bounds were set here for any values at or beyond the usual limits of such assays
experimental_conditions: source organism: Dengue virus 3 Martinique/1243/1999
Entries and their Kd values follow.
Write the answer as a number in nM, unit excluded.

These solved cases illustrate the format of a correct answer.
{"columns": ["residue_codes", "target_under_test", "unit_of_measure", "Kd"],
 "data": [
  ["IASAIVLEF", "HLA-B*35:01", "nM", 8.89],
  ["MTIDLDPVIY", "HLA-B*35:01", "nM", 24.8]
]}

With those in mind, consider the next sequence.
INPUT: What value of Kd has been recorded for this entry: MALKLITQF
OUTPUT: 1.25

====

target_under_test: HLA-A*01:01
test_summary: IEDB peptide-MHC binding, purified MHC/competitive/radioactivity; filed as Kd, often an IC50 or EC50 that approximates it; bounds were set here for any values at or beyond the usual limits of such assays
experimental_conditions: source organism: Mammarenavirus machupoense
test_readout: pKd
pKd here: minus log base 10 of the concentration, concentration in moles per litre.

INPUT: What value of pKd has been recorded for this entry: LCMLNNSLYY
OUTPUT: 6.44

====

Entries and their pKd values follow.
target_under_test: HLA-B*44:03
test_summary: IEDB peptide-MHC binding, purified MHC/competitive/radioactivity; filed as Kd, often an IC50 or EC50 that approximates it; bounds were set here for any values at or beyond the usual limits of such assays
experimental_conditions: source organism: Dengue virus 2 Jamaica/1409/1983
pKd here: minus log base 10 of the concentration, concentration in moles per litre.

These solved cases illustrate the format of a correct answer.
{"columns": ["residue_codes", "pKd"],
 "data": [
  ["NEPEDIDCW", 6.06],
  ["VEMGEAAGIF", 6.23]
]}

INPUT: What value of pKd has been recorded for this entry: EENVEVEIW
OUTPUT: 7.41
